Catalogue of compounds with associated melting point

# Line Notation, Unit Name, melting point
records = [
    ("O=C(c1ccccc1)c1ccccc1Oc1ccc2nnc(Cl)n2n1", "°C", 137.9),
    ("COc1cccc(-c2ccc(C(F)(F)F)cc2Oc2ccc3nnc(C(F)(F)F)n3n2)c1", "°C", 102.5),
]

----------
Molecular target: Rev-Erb alpha (Homo sapiens)
Sequence (P20393 284-614 limits assumed): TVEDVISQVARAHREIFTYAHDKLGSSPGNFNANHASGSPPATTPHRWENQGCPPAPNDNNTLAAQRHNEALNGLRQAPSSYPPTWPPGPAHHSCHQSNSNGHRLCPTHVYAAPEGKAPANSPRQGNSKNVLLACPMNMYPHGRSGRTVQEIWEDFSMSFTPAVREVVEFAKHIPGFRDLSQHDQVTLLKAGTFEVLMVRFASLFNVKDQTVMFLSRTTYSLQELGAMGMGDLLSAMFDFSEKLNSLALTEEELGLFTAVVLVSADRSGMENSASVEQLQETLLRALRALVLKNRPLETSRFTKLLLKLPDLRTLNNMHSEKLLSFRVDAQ
Test: TR-FRET (HTRF) assay of Rev-Erb alpha LBD with NCoR peptide ID1
Type: biochemical
Conditions: cell-free, Rev-Erb alpha LBD His 20 nM, NCoR ID1 30 nM
Property Label: EC50

# Molecule, Property Label, Measured
records = [
    ("Clc1nnc2ccc(Oc3ccccc3-c3ccccc3)nn12 [Cpd.4-1]", "EC50", "1100 to 6000 nM"),
    ("FC(F)(F)c1nnc2ccc(Cc3ccccc3-c3ccccc3)nn12 [Cpd.4-12]", "EC50", "1100 to 6000 nM"),
    ("Fc1ccc(-c2ccccc2Oc2ccc3nnc(Cl)n3n2)cc1 [Cpd.4-10]", "EC50", "< 100 nM"),
    ("Fc1ccc(-c2ccccc2)c(Oc2ccc3nnc(Cl)n3n2)c1 [Cpd.4-7]", "EC50", "< 100 nM"),
    ("O=C(c1ccccc1)c1cccc(Oc2ccc3nnc(C(F)(F)F)n3n2)c1 [Cpd.3-4]", "EC50", "100 to 1000 nM"),
    ("Clc1nnc2ccc(Oc3cccc(-c4ccccc4)c3)nn12 [Cpd.3-1]", "EC50", "100 to 1000 nM"),
]
